system: HCT-116; experiment: Anti-cancer activity against human HCT-116 assessed as cell viability incubated for 48 hrs by CCK-8 assay; assay type: functional, cell-based; conditions: HCT-116, 48 h
*1 amine or outer side, *2 acyl side, *3 side chain or, on linkers, in order; H or OH if unused. Where a SMILES comes first, the peptide text is derived from it. Bridges are numbered along the chain shown (N, C = ends). Biphenyl(4,4'-CH2)2 = c1cc(-c2ccc(C[*:2])cc2)ccc1C[*:1]
Observation Type: IC50 (µM)
# output: bare number, implied unit µM

Prompt: Identify IC50 associated with the compound CC(=O)NCC(=O)N[C@@H](CC(C)C)C(=O)N[C@@H](Cc1ccccc1)C(=O)N[C@@H](C)C(=O)N[C@H](C(=O)N[C@H]1CSCc2ccc(cc2)-c2ccc(cc2)CSC[C@@H](C(=O)N[C@@H](CCCCN)C(=O)NCC(=O)N[C@@H](CC(C)C)C(N)=O)NC(=O)[C@H](C(C)C)NC(=O)[C@H](CO)NC(=O)[C@H](C)NC(=O)[C@H](C(C)C)NC(=O)[C@H](CCCCN)NC(=O)[C@H](CCCCN)NC1=O)C(C)C (Ac-GLFAVCKKVASVCKGL-NH2; linker 6-13 via Biphenyl(4,4'-CH2)2)
Response: 7.44

###

Reported IC50 values for the following compounds.
test system: HCT-116; assay: Anti-cancer activity against human HCT-116 assessed as cell viability incubated for 48 hrs by CCK-8 assay; type: functional, cell-based; conditions: HCT-116, 48 h
*1 amine or outer side, *2 acyl side, *3 side chain or, on linkers, in order; H or OH if unused. Where a SMILES comes first, the peptide text is derived from it. Bridges are numbered along the chain shown (N, C = ends). oXylylene = c1ccc(C[*:2])c(C[*:1])c1; pXylylene = c1cc(C[*:2])ccc1C[*:1]
# output: bare number, implied unit µM

CC[C@H](C)[C@H](NC(=O)[C@@H](NC(=O)[C@H](CO)NC(=O)[C@@H]1CSCc2ccccc2CSC[C@H](NC(=O)[C@@H](NC(=O)[C@H](C)NC(=O)[C@H](Cc2ccccc2)NC(=O)[C@H](CC(C)C)NC(=O)CNC(C)=O)C(C)C)C(=O)N[C@@H](CCCCN)C(=O)N[C@@H](CCCCN)C(=O)N[C@@H](C(C)C)C(=O)N1)C(C)C)C(=O)N[C@@H](CCCCN)C(=O)NCC(=O)N[C@@H](CC(C)C)C(N)=O (Ac-GLFAVCKKVCSVIKGL-NH2; linker 6-10 via oXylylene)	5.86

Prompt: Provide IC50, system HCT-116, entry CC[C@H](C)[C@H](NC(=O)[C@@H](NC(=O)[C@H](CO)NC(=O)[C@@H]1CSCc2ccc(cc2)CSC[C@H](NC(=O)[C@@H](NC(=O)[C@H](C)NC(=O)[C@H](Cc2ccccc2)NC(=O)[C@H](CC(C)C)NC(=O)CNC(C)=O)C(C)C)C(=O)N[C@@H](CCCCN)C(=O)N[C@@H](CCCCN)C(=O)N[C@@H](C(C)C)C(=O)N1)C(C)C)C(=O)N[C@@H](CCCCN)C(=O)NCC(=O)N[C@@H](CC(C)C)C(N)=O (Ac-GLFAVCKKVCSVIKGL-NH2; linker 6-10 via pXylylene)
Response: 13.4

Values were extracted from ChEMBL document CHEMBL5390219.
